src = patent US7074925B1

System: Human's platelet aggregation
Procedure summary: Antiaggregational properties, ADP-induced platelet aggregation
Type: cell-based
Measurement parameters: 100 μg/ml, ADP […], platelet-enriched human plasma
Readout: % of inhibition of platelet aggregation

INSERT INTO assay_data (compound_structure_string, result) VALUES
  ('O=C1NC(=O)N(c2ccc(F)cc2)C(=O)C1=NO', '24.3 ± 4.8%');

Exam item: Please tell me: % of inhibition of platelet aggregation of `O=C1NC(=O)N(c2ccc(Br)cc2)C(=O)C1=NO` , system Human's platelet aggregation?
Marked response: 16.4 ± 3.1%

Exam item: Find the measured % of inhibition of platelet aggregation: item `O=C1NC(=O)N(c2cccc(C(F)(F)F)c2)C(=O)C1=NO` , target or system Human's platelet aggregation.
Marked response: 64.3 ± 6.2%

Exam item: Which measured % of inhibition of platelet aggregation belongs to `Cc1ccccc1N1C(=O)C(=NO)C(=O)NC1=S` , tested on Human's platelet aggregation?
Marked response: 35.8 ± 3.2%

Exam item: Form: Entry = `O=C1NC(=O)N(C2CCCCC2)C(=O)C1=NO` | System = Human's platelet aggregation | % of inhibition of platelet aggregation = ____
Marked response: 68.9 ± 5.3%
